System: antibodies in sera from SARS patients (sera 1a, 1b, 2, 6, 37, 62, London, SARS-yellow, SARS-green)
Format: binding, human
Parameters: unit not given here
Form field: Binding of serum 1a to looped/cyclic peptides of protein N of SARS-CoV Urbani (one value per entry).
Response field accepts a number only; no unit should be typed.

Report Binding of serum 1a to looped/cyclic peptides of protein N of SARS-CoV Urbani, nothing else, for this sequence: ASAFFGMSRIGMEVT
0.3

Report Binding of serum 1a to looped/cyclic peptides of protein N of SARS-CoV Urbani, nothing else, for this sequence: GSRGGSQASSRSSSR
0.6

Report Binding of serum 1a to looped/cyclic peptides of protein N of SARS-CoV Urbani, nothing else, for this sequence: FFGMSRIGMEVTPSG
0.3

Report Binding of serum 1a to looped/cyclic peptides of protein N of SARS-CoV Urbani, nothing else, for this sequence: GTDYKHWPQIAQFAP
0.5

Report Binding of serum 1a to looped/cyclic peptides of protein N of SARS-CoV Urbani, nothing else, for this sequence: PPTEPKKDKKKKTDE
0.2

Report Binding of serum 1a to looped/cyclic peptides of protein N of SARS-CoV Urbani, nothing else, for this sequence: YNVTQAFGRRGPEQT
0.3

Report Binding of serum 1a to looped/cyclic peptides of protein N of SARS-CoV Urbani, nothing else, for this sequence: NNQNGGRNGARPKQR
0.2

Report Binding of serum 1a to looped/cyclic peptides of protein N of SARS-CoV Urbani, nothing else, for this sequence: RIGMEVTPSGTWLTY
0.4

Report Binding of serum 1a to looped/cyclic peptides of protein N of SARS-CoV Urbani, nothing else, for this sequence: SDNGPQSNQRSAPRI
0.3

Report Binding of serum 1a to looped/cyclic peptides of protein N of SARS-CoV Urbani, nothing else, for this sequence: EGALNTPKDHIGTRN
0.3

Report Binding of serum 1a to looped/cyclic peptides of protein N of SARS-CoV Urbani, nothing else, for this sequence: PSGTWLTYHGAIKLD
0.2

Report Binding of serum 1a to looped/cyclic peptides of protein N of SARS-CoV Urbani, nothing else, for this sequence: TFPPTEPKKDKKKKT
0.2

Report Binding of serum 1a to looped/cyclic peptides of protein N of SARS-CoV Urbani, nothing else, for this sequence: SPRWYFYYLGTGPEA
0.6

Report Binding of serum 1a to looped/cyclic peptides of protein N of SARS-CoV Urbani, nothing else, for this sequence: YHGAIKLDDKDPQFK
0.2

---

System: antibodies in sera from SARS patients (sera 1a, 1b, 2, 6, 37, 62, London, SARS-yellow, SARS-green)
Format: binding, human
Rule for this label: Met means Binding of serum SARS-yellow to looped/cyclic peptides of protein N of SARS-CoV Urbani is less than 0.2; Not met means Binding of serum SARS-yellow to looped/cyclic peptides of protein N of SARS-CoV Urbani is at least 0.2.

Completed entries (count: 2):
# entrySequence, classification
rows = [
    ("LESKVSGKGQQQQGQ", "Not met"),
    ("SWFTALTQHGKEELR", "Met"),
]

Now turn to the next sequence.
is_below(Binding of serum SARS-yellow to looped/cyclic peptides of protein N of SARS-CoV Urbani, 0.2) for FSRQLQNSMSGASAD ?
Met

---

System: antibodies in sera from SARS patients (sera 1a, 1b, 2, 6, 37, 62, London, SARS-yellow, SARS-green)
Assay type: binding, human
Form field: Binding of serum SARS-yellow to looped/cyclic peptides of protein M of SARS-CoV Urbani (one value per entry).
Response field accepts a number only; no unit should be typed.

Worked examples follow.
# entrySequence, obsValue
measured = [
    ("TLACFVLAAVYRINW", 0.5),
    ("RVGTDSGFAAYNRYR", 0.5),
    ("CFVLAAVYRINWVTG", 0.4),
    ("AIAMACIVGLMWLSY", 0.8),
    ("DLPKEITVATSRTLS", 0.7),
]

Lab note: next sequence to report on.
Report Binding of serum SARS-yellow to looped/cyclic peptides of protein M of SARS-CoV Urbani, nothing else, for this sequence: LAWIMLLQFAYSNRN
0.3

---

System: antibodies in sera from SARS patients (sera 1a, 1b, 2, 6, 37, 62, London, SARS-yellow, SARS-green)
Assay type: binding, human
quantity: Binding of serum SARS-green to linear peptides of protein N of SARS-CoV Urbani

Worked examples follow.
# entrySequence, obsValue
rows = [
    ("KQRRPQGLPNNTASW", 0.3),
    ("ATRRVRGGDGKMKEL", 0.3),
]

Report Binding of serum SARS-green to linear peptides of protein N of SARS-CoV Urbani, nothing else, for this sequence: LPYGANKEGIVWVAT
0.3

---

Form field: Binding of serum SARS-yellow to linear peptides of protein X1 of SARS-CoV Urbani (one value per entry).
System: antibodies in sera from SARS patients (sera 1a, 1b, 2, 6, 37, 62, London, SARS-yellow, SARS-green)
Format: binding, human
Response field accepts a number only; no unit should be typed.

Report Binding of serum SARS-yellow to linear peptides of protein X1 of SARS-CoV Urbani, nothing else, for this sequence: LYDANYFVCWHTHNY
0.5

Report Binding of serum SARS-yellow to linear peptides of protein X1 of SARS-CoV Urbani, nothing else, for this sequence: LYLYALIYFLQCINA
0.5

Report Binding of serum SARS-yellow to linear peptides of protein X1 of SARS-CoV Urbani, nothing else, for this sequence: SATKIIALNKRWQLA
0.5

Report Binding of serum SARS-yellow to linear peptides of protein X1 of SARS-CoV Urbani, nothing else, for this sequence: IDGSSGVANPAMDPI
0.4

Report Binding of serum SARS-yellow to linear peptides of protein X1 of SARS-CoV Urbani, nothing else, for this sequence: FMRFFTLGSITAQPV
0.7

Report Binding of serum SARS-yellow to linear peptides of protein X1 of SARS-CoV Urbani, nothing else, for this sequence: AGMEAQFLYLYALIY
0.2

Report Binding of serum SARS-yellow to linear peptides of protein X1 of SARS-CoV Urbani, nothing else, for this sequence: SVTDTIVVTEGDGIS
0.4

---

Tested on: rabbit serum obtained by immunizing a rabbit with the SARS-CoV strain Frankfurt 1
Format: binding
Set-up: unit not given here
Rule for this label: class 1 means Binding of a rabbit serum to linear peptides is less than 0.2; class 0 means Binding of a rabbit serum to linear peptides is at least 0.2.

# entrySequence, classification
data = [
    ("MSLYMAISPKFTTSL", "class 0"),
    ("KEDYQIGGYSEDRHS", "class 1"),
]

is_below(Binding of a rabbit serum to linear peptides, 0.2) for DNASPASTVHATATI ?
class 0

is_below(Binding of a rabbit serum to linear peptides, 0.2) for YQLESTQITTDTGIE ?
class 1

is_below(Binding of a rabbit serum to linear peptides, 0.2) for SHLLLVAAGMEAQFL ?
class 0

is_below(Binding of a rabbit serum to linear peptides, 0.2) for ISTPKLKEDYQIGGY ?
class 1

is_below(Binding of a rabbit serum to linear peptides, 0.2) for LGSITAQPVKIDNAS ?
class 0

is_below(Binding of a rabbit serum to linear peptides, 0.2) for HKKVSTNLCTHSFRK ?
class 0

---

Form field: Binding of serum London to linear peptides of protein X2 (one value per entry).
System: antibodies in sera from SARS patients (sera 1a, 1b, 2, 6, 37, 62, London, SARS-yellow, SARS-green)
Assay type: binding, human

# entrySequence, obsValue
records = [
    ("AFQHQNSKKTTKLVV", 0.4),
    ("TMSLYMAISPKFTTS", 0.4),
]

Report Binding of serum London to linear peptides of protein X2, nothing else, for this sequence: KMLHSSSLTSLLKTH
0.9

---

System: rabbit serum obtained by immunizing a rabbit with the SARS-CoV strain Frankfurt 1
Type: binding
Parameters: unit not given here
Please enter class 1 where Rabbit serum linear peptides is greater than or equal to 0.4, and class 0 where it is lower.

Completed entries (count: 5):
# entrySequence, classification
measured = [
    ("GTDSGFAAYNRYRIG", "class 0"),
    ("FKPLTKKNYSELDDE", "class 1"),
    ("LIVFTSCELYHYQEC", "class 1"),
    ("LLQFAYSNRNRFLYI", "class 0"),
    ("ITVATSRTLSYYKLG", "class 0"),
]

Please check the record LACFVLAAVYRINWV and state if its Rabbit serum linear peptides is at or above 0.4.
class 0

Please check the record MLLQFAYSNRNRFLY and state if its Rabbit serum linear peptides is at or above 0.4.
class 1

Please check the record GTYEGNSPFHPLADN and state if its Rabbit serum linear peptides is at or above 0.4.
class 1

Please check the record GAVIIRGHLRMAGHP and state if its Rabbit serum linear peptides is at or above 0.4.
class 1

Please check the record VIGAVIIRGHLRMAG and state if its Rabbit serum linear peptides is at or above 0.4.
class 1

Please check the record LLEQWNLVIGFLFLA and state if its Rabbit serum linear peptides is at or above 0.4.
class 1

Please check the record IISSIVRQLFKPLTK and state if its Rabbit serum linear peptides is at or above 0.4.
class 1

Please check the record SPLFLIVAALVFLIL and state if its Rabbit serum linear peptides is at or above 0.4.
class 1

Please check the record TIVTRPLMESELVIG and state if its Rabbit serum linear peptides is at or above 0.4.
class 0

Please check the record LHEGHQTAAFRDVLV and state if its Rabbit serum linear peptides is at or above 0.4.
class 1

Please check the record ARCWYLHEGHQTAAF and state if its Rabbit serum linear peptides is at or above 0.4.
class 0

Please check the record WLSYFVASFRLFART and state if its Rabbit serum linear peptides is at or above 0.4.
class 0
